Molecular target: SARS-CoV-2 prefusion-stabilized spike protein (SARS-CoV-2-PreS) (SARS-CoV-2, UniProt P0DTC2 14-1208)
Assay: ELISA
endpoint name: EC50 (nM)
Numbers only; they are read as nM.

Query: Please give the measured EC50 for this binder: 11F8 VHH-Fc (Fc fusion) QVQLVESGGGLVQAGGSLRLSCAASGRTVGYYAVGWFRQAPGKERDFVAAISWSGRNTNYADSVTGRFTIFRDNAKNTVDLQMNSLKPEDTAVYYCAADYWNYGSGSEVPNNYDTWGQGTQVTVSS
Reply: 0.19

Query: Also need 19B8 VHH-Fc (Fc fusion) QVQLVESGGGLVQAGGSLRLSCAASGRTFTNYAMGWFRQAPGKEREFVAAISWSGGGTNYADSVKGRFTISRDNAKNTVYLQMNSPKPEDTAVYYCATTLGYYGSSSRLYEYWGQGTQVTVSS , thanks.
Reply: 0.06

Query: Also need 3D4 VHH-Fc (Fc fusion) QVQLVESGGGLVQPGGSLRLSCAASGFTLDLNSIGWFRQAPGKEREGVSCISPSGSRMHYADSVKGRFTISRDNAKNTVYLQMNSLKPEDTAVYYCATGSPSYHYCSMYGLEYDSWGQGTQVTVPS , thanks.
Reply: 0.13

Query: Also need 10B8 VHH-Fc (Fc fusion) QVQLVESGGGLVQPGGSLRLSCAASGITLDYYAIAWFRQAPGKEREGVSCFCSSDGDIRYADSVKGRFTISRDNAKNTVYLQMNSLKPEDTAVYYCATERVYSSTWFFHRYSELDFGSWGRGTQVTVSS , thanks.
Reply: 1.35

Query: Also need 1A11 VHH-Fc (Fc fusion) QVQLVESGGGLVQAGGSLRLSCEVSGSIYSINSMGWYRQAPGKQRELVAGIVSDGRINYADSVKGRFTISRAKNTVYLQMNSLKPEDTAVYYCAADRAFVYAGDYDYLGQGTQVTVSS , thanks.
Reply: 0.18
